Target: recombinant rat CyPA-GST fusion protein (Rattus norvegicus, UniProt P10111)
Construct: made in house; host or cells: E. coli BL21
Sequence (P10111 2-164): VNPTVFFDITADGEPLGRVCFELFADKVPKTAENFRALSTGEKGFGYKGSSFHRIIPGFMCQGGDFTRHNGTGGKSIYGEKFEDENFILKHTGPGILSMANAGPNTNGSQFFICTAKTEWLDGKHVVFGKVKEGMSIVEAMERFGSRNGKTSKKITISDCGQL
Experiment: Rotamase (PPIase) inhibition, chymotrypsin-coupled cuvette assay, rat CyPA-GST fusion protein
Type: biochemical
Details: Table A, value with asterisk: recombinant rat CyPA-GST fusion protein
PROPERTY: IC50 (nM)

Study these solved cases before continuing.
The recorded IC50 for "O=C(Nc1cc(Cl)c(Cl)c(Cl)c1)c1cc(OCc2ccc(Cl)c(Cl)c2)cc(C(=O)Nc2cc(Cl)c(Cl)c(Cl)c2)c1" is 102

Measured IC50, "O=C(Nc1cc(S(=O)(=O)NC(c2ccccc2)c2ccccc2)ccc1Cl)c1cc(Cl)cc(Cl)c1" : 861

// field: IC50; key: "S=C(Nc1cc(Cl)cc(Cl)c1)Nc1cc(OCc2cccc3ccccc23)ccc1Br" ; value = 707

IC50 reading for "Nc1cc(CN2C(=O)c3ccccc3C2=O)cc(NC(=S)Nc2cc(Cl)cc(Cl)c2)c1" : 3530

Item: "S=C(Nc1cc(Cl)cc(Cl)c1)Nc1ccc(Nc2ccc(Cl)cc2)c(NC(=S)Nc2cc(Cl)cc(Cl)c2)c1" | IC50: 609

I. COc1ccc(NC(=S)Nc2cc(Cl)cc(Cl)c2)cc1COc1cc(Cl)cc(Cl)c1
II. CN(C)c1ccc(Nc2ccc(NC(=S)Nc3cc(Cl)cc(Cl)c3)cc2NC(=S)Nc2cc(Cl)cc(Cl)c2)cc1
(Q) Among I and II , which shows a numerically higher IC50 result? To answer, give the label that identifies your chosen option.
(A) II

* * *

Target: recombinant rat CyPA-GST fusion protein (Rattus norvegicus)
Construct: made in house; host or cells: E. coli BL21
Experiment: Semiautomated microtiter plate assay of rotamase activity inhibition, rat CyPA-GST fusion protein
Assay type: biochemical
Details: Table B, value with asterisk: recombinant rat CyPA-GST fusion protein
PROPERTY: IC50 (nM)

Some entries whose results are on file:
The compound listed as "Nc1cc(CN2C(=O)c3ccccc3C2=O)cc(NC(=S)Nc2cc(Cl)cc(Cl)c2)c1" has a reported IC50 of 6940

The reported value for "O=C(Nc1cc(Cl)c(Cl)c(Cl)c1)c1cc(OCc2ccc(Cl)c(Cl)c2)cc(C(=O)Nc2cc(Cl)c(Cl)c(Cl)c2)c1" in terms of IC50 is 91.7

// field: IC50; key: "O=C(Nc1ccc(Cl)c(Cl)c1)c1cc(OCc2ccccc2)cc(C(=O)Nc2ccc(Cl)c(Cl)c2)c1" ; value = 287

A. CN(C)c1ccc(Nc2ccc(NC(=S)Nc3cc(Cl)cc(Cl)c3)cc2NC(=S)Nc2cc(Cl)cc(Cl)c2)cc1
B. O=C(Nc1cc(OCc2cccc3ccccc23)ccc1Br)c1cccc(C(F)(F)F)c1
(Q) Between the two listed entries A and B , which has its IC50 at the higher number? Your choice should be expressed through its label.
(A) B
(B: 9720 nM, A: 353 nM)

* * *

Molecular target: human recombinant CyPA (Homo sapiens, UniProt P62937)
Sequence (P62937 whole entry): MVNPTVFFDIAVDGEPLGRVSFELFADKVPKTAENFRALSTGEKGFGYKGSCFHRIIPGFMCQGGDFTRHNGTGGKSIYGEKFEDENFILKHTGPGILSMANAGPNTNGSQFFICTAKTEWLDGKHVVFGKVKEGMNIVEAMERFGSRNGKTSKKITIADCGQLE
Test: Semiautomated microtiter plate assay of rotamase activity inhibition, human recombinant CyPA
Format: biochemical
Conditions: Table B, value without asterisk: human recombinant CyPA
pIC50: −log10 of the molar value.
PROPERTY: pIC50

Take a look at these entries with their results.
Just so you know, measured pIC50 for "O=C(Nc1cc(CNCc2cccc3ccccc23)cc(NC(=O)c2cccc(C(F)(F)F)c2)c1)c1cccc(C(F)(F)F)c1" came out at 4.82

Lab book: pIC50 of "S=C(Nc1cc(Cl)cc(Cl)c1)Nc1cc(NC(=S)Nc2cc(Cl)cc(Cl)c2)cc(Nc2ccccn2)c1" noted as 5.86

1. O=C(Nc1cccc(C(F)(F)F)c1)c1cc(OCc2ccccc2)cc(OCc2ccccc2)c1
2. O=C(Nc1cccc(C(F)(F)F)c1)c1cc(O)cc(C(=O)Nc2cccc(C(F)(F)F)c2)c1
(Q) Kindly identify the item with the lower pIC50 figure among these two: 1 and 2 Refer to your chosen entry by its label in the reply.
(A) 2
